- target.or.test.system: T1, CRBN, Q96SW2;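 further: pooled lentiviral library of zinc finger degron-EGFP fusions in mCherry-positive Jurkat cells, FACS-sorted after compound exposure, with degron abundance counted by next-generation sequencing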
- T1 chain: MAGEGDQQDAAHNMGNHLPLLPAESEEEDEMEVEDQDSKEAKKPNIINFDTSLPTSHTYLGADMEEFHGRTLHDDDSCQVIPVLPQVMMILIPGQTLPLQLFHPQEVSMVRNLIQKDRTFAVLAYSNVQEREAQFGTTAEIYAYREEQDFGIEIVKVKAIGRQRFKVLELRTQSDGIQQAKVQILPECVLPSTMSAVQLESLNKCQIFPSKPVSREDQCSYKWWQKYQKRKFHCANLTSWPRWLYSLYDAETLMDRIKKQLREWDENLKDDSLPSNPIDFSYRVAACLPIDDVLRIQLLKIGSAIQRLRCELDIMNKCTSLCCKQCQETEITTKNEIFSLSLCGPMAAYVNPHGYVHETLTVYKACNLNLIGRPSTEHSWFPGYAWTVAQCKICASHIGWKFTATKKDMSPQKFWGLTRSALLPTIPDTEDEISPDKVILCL
- experiment.summary: log2 fold change of degron read counts, EGFP-low vs EGFP+ sorted cells (limma voom), compound-induced degradation; higher = more compound-induced degradation of the degron-EGFP fusion; degrons are variants of IKZF1/3 zinc finger 2; compound dose not given here
- settings: Jurkat; 18 h; compound: compound 19 (5-tert-butyl-thalidomide)
In all, about 8,300 sequences were measured (“log2 fold change of degron read counts, EGFP-low vs EGFP+ sorted cells (limma voom), compound-induced degradation”: median about -1.1, highest 2% from about 3.2 on). The full list was thinned out, with the highest values kept by preference.
We begin with a simple list: items and their reported log2 fold change of degron read counts.

{"columns": ["sequence", "log2 fold change of degron read counts"],
 "data": [
  ["FFCEVCGAGFTQKGNLLRHIKL [46F_47F_49E_50V_52G_53A_54G_55F_67L_, Q9UKT9]", 3.65],
  ["FHCEVCGAGFTQKGNLLRHIKL [46F_47H_49E_50V_52G_53A_54G_55F_67L_, Q9UKT9]", 3.18],
  ["FKCDQCGACFTQKGNLLRHIKL [46F_47K_49D_50Q_52G_53A_54C_55F_67L_, Q9UKT9]", -2.75],
  ["FICNQCGRGFTQKGNLLRHIKL [46F_47I_49N_50Q_52G_53R_54G_55F_67L_, Q9UKT9]", -3.02]
]}
